Data origin, for the record: paper PMC5540273

# System: ERK5
# Construct: gene MAPK7
# Condition details: concentration: 1 μM, replicates: in singlicate; n = 1;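 further: KINOMEscan kinase panel screen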
Listed compounds paired with reported %Inh
Give a bare numeral; the unit % is implied.

Past entries and their recorded results:
[[record]]
compound = "Fc1cccc(COc2ccc(Nc3ncnc4nn5ccccc5c34)cc2Cl)c1 [GW689066]"
experimental_result = 0

[[record]]
compound = "C[C@H]1CC[C@@H](C(=O)Nc2ccccc2)CN1c1cc(-c2ccc3c(N)n[nH]c3c2)nc(N)n1 [GSK2283293]"
experimental_result = 0

[[record]]
compound = "OCCOCCn1ccc2ncnc(Nc3ccc(Oc4cccc(Cl)c4)c(Cl)c3)c21"
experimental_result = 0

[[record]]
compound = "Cc1ccc(O)cc1Nc1cc(C(F)(F)F)nc2ccc(-c3ccncc3)cc12 [GW630823]"
experimental_result = 9


Input Cn1cc(-c2ccc3c(c2)CCN3C(=O)Cc2cccc(C(F)(F)F)c2)c2c(N)ncnc21 [GSK2606414] . Output %Inh: 0

---

# Test system: BLK
# Condition details: concentration: 1 μM, replicates: in singlicate; n = 1
Reported metric: %Inh (%)
Write the value in % as a bare number.

# annotated cases, reported %Inh shown
[[record]]
molecule = "COc1cc2c(Nc3cccc(NC(=O)c4ccccc4)c3)ncnc2cc1OCCCN1CCOCC1"
unit_text = "%"
experimental_result = 58

[[record]]
molecule = "CNc1nccc(-c2c(-c3ccc(F)cc3)ncn2C2CCN(C)CC2)n1"
unit_text = "%"
experimental_result = 36

[[record]]
molecule = "Cc1cccc(-c2nc(Nc3ccc4[nH]nnc4c3)c3ccccc3n2)n1"
unit_text = "%"
experimental_result = 3


# evaluate next
Noted for `Cc1ccc(C)c(NC(=O)NCCNc2ccnc(Nc3ccc(F)cc3)n2)c1` : its %Inh reads 33

---

# Tested on: RPS6KA5(Kin.Dom.2-C-terminal)
# Condition details: concentration: 1 μM, replicates: in singlicate; n = 1
Reported metric: %Inh
For clarity, give the value followed by its unit.

[[record]]
compound = "Clc1ccc(-c2cc(-c3c[nH]nc3-c3ccccn3)ccn2)cc1 [GW681251]"
target_system = "RPS6KA5(Kin.Dom.2-C-terminal)"
experimental_result = "0%"

[[record]]
compound = "Fc1ccc(Nc2nccc(-c3c(-c4ccc(Cl)cc4)nn4ncccc34)n2)cc1F [GW829058]"
target_system = "RPS6KA5(Kin.Dom.2-C-terminal)"
experimental_result = "18%"

[[record]]
compound = "COC(=O)c1cccc(NC(=O)NCCNc2ccnc(Nc3ccc(F)cc3)n2)c1 [GSK1379883]"
target_system = "RPS6KA5(Kin.Dom.2-C-terminal)"
experimental_result = "4%"


Switching to the query record.
# %Inh of C[C@H]1CC[C@@H](C(=O)Nc2ccccc2)CN1c1cc(-c2ccc3c(N)n[nH]c3c2)nc(N)n1 [GSK2283293] = 0%

---

# System: NDR1
# Construct: gene STK38
# Condition details: concentration: 1 μM, replicates: in singlicate; n = 1
# key: entry, value: %Inh
Value expressed in %; do not type the unit.

Please review the entries below; each comes with its answer.
[[record]]
molecule = "Cn1cc(-c2ccc3c(c2)CCN3C(=O)Cc2cccc(C(F)(F)F)c2)c2c(N)ncnc21 [GSK2606414]"
experimental_result = 0

[[record]]
molecule = "c1ccc(-c2ccc3c(-c4ccnc(Nc5ccc6c(c5)OCCO6)n4)cnn3n2)cc1 [GW818941]"
experimental_result = 11

[[record]]
molecule = "Cl.c1ccc(Cn2ncc3cc(Nc4ncnc5ccccc45)ccc32)cc1 [GW273749]"
experimental_result = 12


Kindly note the recorded %Inh for C[C@H]1CC[C@@H](C(=O)Nc2ccccc2)CN1c1cc(-c2ccc3c(N)n[nH]c3c2)nc(N)n1 [GSK2283293] , which is 13

%Inh for COC(=O)c1cccc(NC(=O)NCCNc2ccnc(Nc3ccc(F)cc3)n2)c1 [GSK1379883] is 0

Per the records, this molecule ( Nc1n[nH]c2nnc(-c3ccccc3)cc12 [SB-517389] ) has %Inh equal to 14

For record CC(C)N1CCC(n2cnc(-c3ccc(F)cc3)c2-c2ccnc(N)n2)CC1 [SB-223132] the listed %Inh is 7

Looking up FC(F)(F)c1cc(Nc2nccc(-c3c(-c4ccc(Cl)cc4)nn4ncccc34)n2)ccc1Cl [GW829351] , I see its %Inh listed as 16

---

# Tested on: ZAK
# Condition details: concentration: 1 μM, replicates: in singlicate; n = 1
Reported metric: %Inh (%)
Give a bare numeral; the unit % is implied.

See these solved cases before continuing.
[[record]]
structure_smiles_string = "Clc1cccc(-c2nc(Nc3ccncc3)c3ccccc3n2)c1"
target_system = "ZAK"
experimental_result = 0

[[record]]
structure_smiles_string = "COc1ccc(NC(=O)Nc2ccc(C)c(-c3ccc(C(=O)Nc4ccncc4)cc3)c2)cc1"
target_system = "ZAK"
experimental_result = 6

[[record]]
structure_smiles_string = "COc1ccc(-c2oc3ncnc(N)c3c2-c2ccc(OC)cc2)cc1"
target_system = "ZAK"
experimental_result = 9


Given item `NC(=O)c1sc(-n2cnc3ccccc32)cc1OCc1ccccc1F` , the value recorded as its %Inh is 0

// sample `Cl.c1ccc(Cn2ncc3cc(Nc4ncnc5ccccc45)ccc32)cc1` , its %Inh was 0

The reported %Inh of the compound `CN1c2ccc(-c3ccc(C(=O)NCCO)cc3)cc2-c2[nH]ncc2S1(=O)=O` was 20

Form: compound = `FC(F)(F)c1ccc(-c2nn3ncccc3c2-c2ccnc(Nc3cccc(C(F)(F)F)c3)n2)cc1` ; %Inh = 0

The reported value for `CS(=O)(=O)CCNCc1ccc(-c2ccc3ncnc(Nc4ccc(OCc5ccccc5)c(Cl)c4)c3c2)o1.Cl` in terms of %Inh is 0

// sample `CC(=O)Nc1n[nH]c2ncc(-c3ccccc3)cc12` , its %Inh was 31

---

Quick reference for %Inh among some compounds
# Tested on: PHKG2
# Condition details: concentration: 1 μM, replicates: in singlicate; n = 1
Use % as the unit, but write only the number.

Known results for compounds:
[[record]]
structure_smiles_string = "COc1cc2ncnc(Nc3ccc(OCc4ccccc4Br)c(Cl)c3)c2cc1OC.Cl"
unit_text = "%"
experimental_result = 0

[[record]]
structure_smiles_string = "c1ccc(-c2ccc3c(-c4ccnc(Nc5ccc6c(c5)OCCO6)n4)cnn3n2)cc1"
unit_text = "%"
experimental_result = 0

[[record]]
structure_smiles_string = "OCCOCCn1ccc2ncnc(Nc3ccc(Oc4cccc(Cl)c4)c(Cl)c3)c21"
unit_text = "%"
experimental_result = 26

[[record]]
structure_smiles_string = "N#Cc1ccc(Oc2ccc(Nc3ncnc4cc[nH]c34)cc2Cl)cc1"
unit_text = "%"
experimental_result = 18

[[record]]
structure_smiles_string = "CCn1c(-c2ccncc2)nc2cnccc21"
unit_text = "%"
experimental_result = 0


Briefly, %Inh measured for `CSc1nn2c(=O)cc(N3CCOCC3)nc2n1Cc1cccc(Cl)c1Cl` : 0

Per the records, this compound ( `Cn1cc(-c2ccc3c(c2)CCN3C(=O)Cc2cccc(C(F)(F)F)c2)c2c(N)ncnc21` ) has %Inh equal to 0

Measured %Inh of `C[C@@H]1CCN(C(=O)CO)C[C@@H]1N(C)c1ncnc2[nH]ccc12` : 0

The compound `Nc1nc(-c2ccc3c(N)n[nH]c3c2)cc(N2CCC[C@@H](C(=O)Nc3ccccc3)C2)n1.O=C(O)C(F)(F)F.O=C(O)C(F)(F)F` showed %Inh equal to 2

---

# System: NEK4
# Condition details: concentration: 1 μM, replicates: in singlicate; n = 1
Reported metric: %Inh (%)
The answer is to be given in %; state only the numeric part.

[[record]]
compound = "Nc1nc(-c2ccc3c(N)n[nH]c3c2)cc(N2CCC[C@@H](C(=O)Nc3ccccc3)C2)n1.O=C(O)C(F)(F)F.O=C(O)C(F)(F)F [GSK2288359]"
reported_metric = "%Inh"
experimental_result = 0

[[record]]
compound = "O=C(NCCCN1CCCC1=O)c1cnc(NCc2cc(Cl)ccc2Cl)nc1NC1CCNCC1"
reported_metric = "%Inh"
experimental_result = 0

[[record]]
compound = "Nc1nccc2scc(-c3ccc4c(c3)CCN4C(=O)Cc3cc(F)ccc3F)c12 [GSK2587663]"
reported_metric = "%Inh"
experimental_result = 9

[[record]]
compound = "Clc1ccc(-c2cc(-c3c[nH]nc3-c3ccccn3)ccn2)cc1 [GW681251]"
reported_metric = "%Inh"
experimental_result = 8

[[record]]
compound = "Cc1ccc(O)cc1Nc1cc(C(F)(F)F)nc2ccc(-c3ccncc3)cc12 [GW630823]"
reported_metric = "%Inh"
experimental_result = 0


Looking up Cl.c1ccc(Cn2ccc3cc(Nc4ncnc5ccccc45)ccc32)cc1 [GW275568] , I see its %Inh listed as 5

Reported %Inh for Cl.O=S(=O)(c1cccc(F)c1)c1ccc(Nc2ncnc3cc(Br)sc23)cc1Cl [GSK306886] was 0

Entry under test: Cc1cc(N2CCC(NS(=O)(=O)c3ccc(F)cc3)CC2)nc(Nc2cccc(C#N)c2)n1.O=C(O)C(F)(F)F [GSK1653537] . Its %Inh was 0
